These entries and their values trace back to the RNAGym collection of RNA variant scans (doi:10.1021/acssynbio.7b00057).

B1: Pistol ribozyme (parent)
chain: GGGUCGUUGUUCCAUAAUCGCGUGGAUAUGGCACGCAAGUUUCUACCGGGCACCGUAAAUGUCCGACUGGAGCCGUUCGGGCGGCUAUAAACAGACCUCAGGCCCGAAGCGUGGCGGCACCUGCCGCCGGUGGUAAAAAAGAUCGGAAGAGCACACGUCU

# Variants of: B1
# ASSAY NAME: aptazyme ON/OFF ratio, guanine; higher = stronger switching; co-transcriptional cleavage with and without guanine
REPORTED ENDPOINT: aptazyme ON/OFF ratio
Answers are plain numbers.

{"MUTATION ID": "U7C U10A C12G", "REPORTED MEASUREMENT": 1.29}
{"MUTATION ID": "U7C U8G G9C U11G C12A C13G", "REPORTED MEASUREMENT": 1.18}
{"MUTATION ID": "U7C U8A G9C U10C U11C C12A C13U", "REPORTED MEASUREMENT": 1.05}
{"MUTATION ID": "U7G U8G G9C U10A U11A C12A C13A", "REPORTED MEASUREMENT": 1.05}
{"MUTATION ID": "G9U U10A U11G C12U C13U", "REPORTED MEASUREMENT": 1.7}

# return aptazyme ON/OFF ratio for each item in the list
1. U7G U8G G9A U10G U11C C12G C13A
2. U7A U10C U11A C12U C13A
3. U7C U8A U10A C12U C13A
4. U7A G9A U10A C13U
5. U7A U8C G9C U10A U11G C12A
6. U7G U8A G9C U10G U11G C12G
7. U7C U8G G9C C12U

Data returned:
[1.16, 1.17, 1.22, 1.29, 1.04, 1.06, 1.11]

Can you give me aptazyme ON/OFF ratio for all of these, one by one?
1. U7G U8C G9C C12G
2. U7G U8A G9C U10C U11C C12A C13U
3. U7G U8G G9A U10G U11A C12U
4. U7A U8G G9U U10G U11A C12A
5. U8G G9A U10A U11G C12A C13A
6. U7A U8A U10C U11A C13G
7. U7C U8C U11C C12U
8. U7G U8A G9C U10A C12U

Data returned:
1.22
1.03
1.13
1.74
1.17
1.09
1.34
1.03
